Source: PubChem BioAssay (NCI)

tested on: EKVX NSCLC; assay: NCI-60 one-dose screen, 48 h (100 = growth as untreated, 0 = no growth, -100 = all killed); details: 10 µM unless noted
The panel holds about 83,000 compounds, 20% with a hit somewhere; the sample as a whole holds those more often.
Measured metric: growth (%)
The reply should contain only the number, in %.

State the recorded growth for this entry: CCC1C[N+]2=C(c3cc(OC)c(OC)cc3CC2)c2c1cc1n2CCc2cc(OC)c(OC)cc2-1 (stereo not given) 57.9

Which growth is reported for this molecule? `O=C(OC12CC3CC(CC(C3)C1)C2)c1ccc(NCc2cc(O)ccc2O)cc1` -67.9

Any idea what its growth is? The molecule is `CCCOC(=O)c1nc(N(CC2CCCCC2)C(=O)NC)sc1/N=C/c1ccccc1` 9.94

Which growth is listed for CCC(C)(O)Cc1ccc(Cl)cc1 (stereo not given) ? 111

Query: growth; subject: `O=C(NOC(=O)c1ccccc1)c1ccccc1` 95.7
